Protocol: gradient 5% acetonitrile 3 min, to 50% in 2 min, to 85% in 15 min, held 3 min, 100 µL/min
Protocol Conditions: column: Zorbax Extend-C18 2.1 x 50 mm; eluents: water / acetonitrile, 0.1% formic acid
Response field label: string, one of t (RP-LC retention time strictly below 800 s) or f.

CC1=C(c2ccccc2)S(=O)(=O)N=C1N1CCCN(C(=O)c2sccc2C)CC1 ... t
COc1ccc(NC(=O)C2CCN(c3nnc4cccc(C)n34)CC2)cc1Cl ... t
COc1ccc2c(C)cc(C)nc2n1 ... t
CCn1cc(-c2nc(C(=O)Nc3ccc(F)cc3Cl)cs2)c2cccnc21 ... f
CC(C)c1noc(-c2cc(=O)n(CC(=O)Nc3ccc(N(C)C)cc3)c3ccccc23)n1 ... t
Cc1ccc(C(=O)N2CCC3(CCC3N3CCOCC3)CC2)s1 (centres undefined) ... t
CCCN1C(=O)C2CCC(=O)N2c2ccc(C(=O)NCCCN3CCOCC3)cc21 (centres undefined) ... t
COc1cc2c(cc1O)CC1c3c(cc(O)c(OC)c3-2)CCN1C (centres undefined) ... t
CSc1cccc(NC(=O)Cn2c(=O)n(-c3ccccc3)c(=O)c3c2cc(C)n3C)c1 ... f
COC(=O)Cn1c(-c2ccc(C)cc2)cnc1SCC(=O)Nc1nnc(C)s1 ... t
CCn1cc(-c2nc(C(=O)Nc3ccccc3F)cs2)c2cccnc21 ... f

###

Protocol: gradient 5% acetonitrile 3 min, to 50% in 2 min, to 85% in 15 min, held 3 min, 100 µL/min
Protocol Conditions: column: Zorbax Extend-C18 2.1 x 50 mm; eluents: water / acetonitrile, 0.1% formic acid
Value Type: RP-LC retention time (s)

O=S(=O)(c1cccnc1)N1CC[C@@H]2COCCN(Cc3cccnc3)[C@@H]2C1 ... 577
CCCN(CCC)C(=O)Cn1c(C2CCCN2C(=O)CC)nc2ccccc21 (stereo not drawn) ... 660
CCc1cnc2c(c1SCC(=O)N1CCCC1)c(=O)n(C)c(=O)n2C ... 732

###

Below, each entry is listed with its recorded RP-LC retention time.
Protocol: gradient 5% acetonitrile 3 min, to 50% in 2 min, to 85% in 15 min, held 3 min, 100 µL/min
Protocol Conditions: column: Zorbax Extend-C18 2.1 x 50 mm; eluents: water / acetonitrile, 0.1% formic acid
Value Type: RP-LC retention time (s)

OC(CN1CCC(Cc2ccc(F)cc2)CC1)c1ccc(Cl)cc1 (stereo not drawn) ... 825
COC(=O)c1c(-c2cccc(Cl)c2)noc1NCc1ccccn1 ... 897
CN(CCc1noc(COc2ccc(F)cc2)n1)C(=O)Nc1ccc(F)c(Cl)c1 ... 953

###

Protocol: gradient 5% acetonitrile 3 min, to 50% in 2 min, to 85% in 15 min, held 3 min, 100 µL/min
Protocol Conditions: column: Zorbax Extend-C18 2.1 x 50 mm; eluents: water / acetonitrile, 0.1% formic acid
Value Type: RP-LC retention time

CCc1ccc(S(=O)(=O)Nc2ccc3c(c2)N(C(=O)c2cccs2)CC3)s1 ... 923 s
Cc1ccc(C)c(NC(=O)Nc2ccc(-c3cn4ccc(C)nc4n3)cc2)c1 ... 690 s
CC(C)N1C(=O)c2cccnc2Sc2cc(NC(=O)c3ccc(F)cc3)ccc21 ... 896 s
Cc1noc(C)c1Cc1c(C(=O)NCCn2c(C)cnc2C2CC2)noc1C ... 623 s
CCN1C(=O)COc2ccc(-c3noc(Cc4ccc(Cl)cc4)n3)cc21 ... 1100 s
O=C(CSc1nnc(N2CCN(C(=O)c3cccs3)CC2)s1)NCc1ccco1 ... 642 s
CN(Cc1cccnc1)C(=O)c1c(OCC2CC2)cc(=O)n2c1CCCCC2 ... 587 s
CCOc1ccc(NC(=O)Cn2c(C)nc3cc4c(cc32)OCCO4)cc1 ... 658 s
Cc1cccc(-c2nc(C)c(CCNC(=O)C(=O)Nc3ccc([N+](=O)[O-])cc3)s2)c1 ... 1020 s
O=C(N[C@H]1C[C@@H]2C[C@H]1N(S(=O)(=O)c1ccc3c(c1)CCC3)C2)c1cccs1 ... 943 s
COC(=O)c1ccccc1NC(=O)Cn1c(=O)n(-c2ccc(F)cc2)c(=O)c2c1cc(C)n2C ... 933 s
CCn1cc(-c2nc(CC(=O)Nc3ccccc3OC)cs2)c2cccnc21 ... 984 s
COc1ccc(NS(=O)(=O)c2cc(-c3nnc(C(=O)N4CCCC4)o3)sc2C)cc1OC ... 806 s
Cn1c(N2CCCC(C(=O)NC3CCCCCC3)C2)cc(=O)n(C)c1=O (stereo unspecified) ... 715 s
COC(=O)c1cccc(Nc2c(-c3ccccc3)nc3cnccn23)c1 ... 834 s
Cc1ccn2cc(-c3ccc(NS(=O)(=O)c4ccc(C)c([N+](=O)[O-])c4)cc3)nc2n1 ... 685 s
CCC(c1cccs1)N1C(=O)[C@H]2CN(S(=O)(=O)c3ccc(Cl)cc3)C[C@H]2C1=O (stereo partly specified) ... 1060 s
CCCNC(=O)c1cnn(-c2ccc(-c3nc(C(C)C)no3)cn2)c1C ... 907 s
O=C(Nc1nnc(C2=COCCO2)o1)c1cc2cc([N+](=O)[O-])ccc2s1 ... 759 s
CCCN(CC1CC1)C(=O)CCC1CCCN(S(=O)(=O)c2ccc(C)cc2)C1 (stereo unspecified) ... 1120 s
Cn1c(N2CCCC(C(=O)N3CCN(c4ccccn4)CC3)C2)cc(=O)n(C)c1=O (stereo unspecified) ... 578 s
CCN(CC)C(=O)Cn1cc(C(=O)C(=O)N2CCc3ccccc3C2)c2ccccc21 ... 644 s
CCNc1cc(C)nc(N2CCN(C(=O)C(C)C)CC2)n1 ... 598 s
CCCCNc1nc2c(c(=O)n(C)c(=O)n2C)n1CC(O)COc1ccccc1 (stereo unspecified) ... 882 s
Cc1noc(C2CCCCN2C(=O)c2ccoc2)n1 (stereo unspecified) ... 670 s
CCCN(C)C(=O)c1ccc(-n2cc(CNC(=O)C3CCC3)cn2)cc1 ... 695 s
CCn1ccc2cc(S(=O)(=O)N3CCCC(C(=O)NC4CCCCCC4)C3)ccc21 (stereo unspecified) ... 1080 s
Cc1cccc(-c2nnc(-c3cccc(S(=O)(=O)N4CCOCC4)c3)o2)c1 ... 885 s
CCCCOc1ccc(C(=O)Nc2cccc(C)n2)cc1 ... 840 s
O=C(C1CC(=O)N(c2ccc3c(c2)CCN3C(=O)C2CCC2)C1)N1CCCCC1 (stereo unspecified) ... 760 s
COc1ccc2[nH]c(=O)c(CCC(=O)NCCCN3CCCCC3)cc2c1 ... 586 s

###

Protocol: gradient 5% acetonitrile 3 min, to 50% in 2 min, to 85% in 15 min, held 3 min, 100 µL/min
Protocol Conditions: column: Zorbax Extend-C18 2.1 x 50 mm; eluents: water / acetonitrile, 0.1% formic acid
Value Type: RP-LC retention time (s)

CCOC(=O)c1sc(NC(=O)CSc2nccn2C)nc1-c1ccccc1 ... 678
O=C(c1cc[nH]c(=O)c1)N1C[C@@H](COCC2CC2)[C@H](c2ccncc2)C1 ... 555
Cn1cc(CC(=O)Nc2ccc(F)cc2)c2cccnc21 ... 703
CCOC(=O)c1sc(NC(=O)c2ccncc2)nc1-c1ccccc1 ... 855
O=C(C1CCCC1)N1CCCC(c2nn[nH]n2)C1 (centres undefined) ... 636
CC(=O)Nc1nc(-c2ccc(S(=O)(=O)Nc3ccc(C)cc3)cc2)cs1 ... 854
COc1ccc(CNS(=O)(=O)c2cc3n(c2)CCN(C(C)C)C3=O)cc1 ... 712
O=C(O)c1ccc(-c2ccc(N3CCCCCC3)nc2)cc1 ... 623
Cc1ccn2c(NC(=O)c3ccc4ccccc4c3)c(-c3ccccc3)nc2c1 ... 747
O=C(Nc1ccccc1F)N1CCC(n2cnc3ccccc3c2=O)CC1 ... 712
CC1CCCCN1S(=O)(=O)c1ccc2nc(N3CCN(c4ccccn4)CC3)ccc2c1 (centres undefined) ... 674
CCC(=O)N(CC(=O)N(Cc1ccc2c(c1)OCO2)Cc1sccc1C)CC1CCCO1 (centres undefined) ... 864
CCOc1cc(=O)n2c(c1C(=O)Nc1cc(OC)ccc1OC)CCCC2 ... 727
COC[C@@H]1CN(S(=O)(=O)c2cccc(C#N)c2)C[C@H]1c1ccccn1 ... 715

###

Protocol: gradient 5% acetonitrile 3 min, to 50% in 2 min, to 85% in 15 min, held 3 min, 100 µL/min
Protocol Conditions: column: Zorbax Extend-C18 2.1 x 50 mm; eluents: water / acetonitrile, 0.1% formic acid
Below, each entry is listed with its recorded RP-LC retention time.
Value Type: RP-LC retention time (s)

CC(NC(=O)Cc1ccccc1F)C(=O)Nc1nc2ccccc2[nH]1 (centres undefined) ... 638
CCc1ccc(C(=O)N2CCC(COc3ccc(C(=O)NC(C)C)cc3)CC2)cc1 ... 941
COc1ccc(N(Cc2nnc3n2CCCCC3)C(=O)Nc2ccccc2OC)cc1 ... 772
CCCc1ccc(S(=O)(=O)N2CCC(OCc3noc(C4CCCO4)n3)CC2)cc1 (centres undefined) ... 987
COCCN(Cc1cccs1)C(=O)CN1C[C@H]2C[C@H](C1)[C@H]1CCCC(=O)N1C2 ... 556
COc1ccc(S(=O)(=O)N2CCCC(C(=O)N3CCOCC3)C2)cc1Cl (centres undefined) ... 766
O=S(=O)(c1ccc2c(c1)CCC2)N1CCc2nc(-c3ccccc3)ncc2C1 ... 1190
Cn1cc(-c2noc(-c3ccc(F)cc3)n2)ccc1=O ... 827
O=C(NCCC1=CCCCC1)C1CCN(C(=O)c2ncn3c2COC(c2ccc(F)cc2)C3)CC1 (centres undefined) ... 849
O=C(CN1C[C@H]2C[C@H](C1)[C@H]1CCCC(=O)N1C2)Nc1ccc2c(c1)OCCO2 ... 587
CC(=O)c1cccc(Nc2c(C(=O)N3CCOCC3)cnc3nc(C)ccc23)c1 ... 584
CC(NC(=O)c1ccco1)c1nc(-c2ccc(N3CCOCC3)cc2)no1 (centres undefined) ... 757
O=C(Nc1ccc(N2CCCN(C(=O)C3CC3)CC2)cc1)c1ccc(=O)[nH]c1 ... 595
CCOC(=O)C(NC(C)=O)(C(=O)OCC)C(C)c1c[nH]c2ccccc12 (centres undefined) ... 847
COc1ccccc1-c1noc(C2CCCN2C(=O)c2ccc(C)s2)n1 (centres undefined) ... 996
Cc1cccc(C)c1NC(=O)N1CCC(c2cc(N)on2)CC1 ... 660
COc1ccc2cc(C(=O)NCCC(=O)NCCc3c[nH]c4ccccc34)[nH]c2c1 ... 775
COC(=O)c1ccc2c(=O)n(Cc3cccc(OC)c3)c(N3CCOCC3)nc2c1 ... 936
CCn1nc(CNC(=O)Cc2ccccc2F)c2ccccc21 ... 791
Cc1nc(-c2csc(S(=O)(=O)NCc3ccccc3Cl)c2)sc1C ... 1030
Cc1cc(N2CCN(C(=O)Nc3ccc(C)c(C)c3)CC2)nc(N2CCOCC2)n1 ... 666
Cc1nn2c(CNC(=O)C(C)Oc3cccc(Cl)c3)c(C)nc2s1 (centres undefined) ... 676
CCc1nc(-c2csc(S(=O)(=O)N3CCCC(C(=O)Nc4ccc(C)c(C)c4)C3)c2)no1 (centres undefined) ... 1110
CCN(CC)C(=O)c1ccc2c(c1)N(CC(=O)N1CCCC1)C(=O)C1CCCCN21 (centres undefined) ... 753
O=C(c1ccc(Br)o1)N1CCC(c2cnn(-c3ccc(F)cc3)c2)CC1 ... 984
COC(=O)c1ncn2c1C(=O)N(Cc1cccc(F)c1)C(C)(C(=O)NCc1ccc(C)cc1)C2 (centres undefined) ... 760
Cc1ccc(NC(=O)N2CCCC(C)(C(=O)NCc3ccc(F)cc3)C2)cc1F (centres undefined) ... 959
O=C(NCCC1=CCCCC1)c1ccc2c(c1)NC(=O)C1CCCCN21 (centres undefined) ... 930
CS(=O)(=O)N1CCC(C2CCN(Cc3ccccc3C#N)C2)CC1 (centres undefined) ... 590
CCC1(O)CCC12CCN(C(=O)CC(C)C)CC2 (centres undefined) ... 744
Cc1noc(C2CN(C(=O)Nc3cc(F)ccc3F)CC23CCOCC3)n1 (centres undefined) ... 733
CCC(C)NC(=O)N1CCn2nnc(CCC(=O)N3CCOCC3)c2C1 (centres undefined) ... 598
COc1ccc(-c2nnc3sc(COc4ccc(Br)cc4)nn23)cc1 ... 1060
CC(C)C(=O)Oc1ccc(CO)cc1[C@H](CCN(C(C)C)C(C)C)c1ccccc1 ... 830
